Where do the numbers come from? From paper PMC6133083.

# Assay type: in vivo, Sprague–Dawley rats
# conditions: Sprague-Dawley, rat, plasma, iv, 15 mg/kg
measured endpoint: concentration at 30 min (ng/mL)
Give bare numbers, in ng/mL.

[Q] Using the record for COc1cc2c(cc1OC)CN(CCc1ccc(NC(=O)c3cc(OC)c(OC)cc3NC(=O)c3cnc4ccccc4c3)cc1)CC2 , report its concentration at 30 min.
[A] 1910
